The reported measurements were obtained from patent US20240025907A1.

Exercise: for every item that follows, state its recorded inhibition at 0.1 µM.
- Test system: KRas-mediated Phosphorylation of ERK in HCT116 cells
- experimental details: Cisbio HTRF pERK assay, HCT116 cells
- Assay type: cell-based
- protocol conditions: Homo sapiens, HCT-116, HCT116 cells, single point at 100 nM
Answer format reminder: number followed by unit.

Query :: GET /values?readout=inhibition at 0.1 µM&system=KRas-mediated Phosphorylation of ERK in HCT116 cells&item= `CCc1c(F)ccc2cc(O)cc(-c3c(F)cc4c(N5CCC[C@@](C)(O)C5)nc(OCC56CCCN5CCC6)nc4c3F)c12`
Result :: 50%

Query :: # value lookup — system KRas-mediated Phosphorylation of ERK in HCT116 cells, readout inhibition at 0.1 µM, item `CCc1c(F)ccc2cc(O)cc(-c3c(F)cc4c(N5CCCn6nc(C(=O)NC)c(C)c6C5)nc(OC[C@@]56CCCN5C[C@H](F)C6)nc4c3F)c12`
Result :: 32%

Query :: Short answer please: inhibition at 0.1 µM, KRas-mediated Phosphorylation of ERK in HCT116 cells, entry CCc1c(F)ccc2cc(O)cc(-c3ccc4c(N5CCOCC(C)(O)C5)nc(OCC5(CN(C)C)CC5)nc4c3F)c12 (stereo not drawn)
Result :: 30%

Query :: Return inhibition at 0.1 µM measured with KRas-mediated Phosphorylation of ERK in HCT116 cells given this molecule: `CCc1c(F)ccc2cc(O)cc(-c3c(F)cc4c(N5CCCn6nc(C(=O)N(C)C)c(Cl)c6C5)nc(OC[C@@]56CCCN5C[C@H](F)C6)nc4c3F)c12`
Result :: 75%

Query :: Which measured inhibition at 0.1 µM belongs to CCc1c(F)ccc2cc(O)cc(-c3ccc4c(N5CC6C(=O)NC(=O)C6C5)nc(OCC5(CN(C)C)CC5)nc4c3F)c12 (stereo not drawn) , tested on KRas-mediated Phosphorylation of ERK in HCT116 cells?
Result :: 3%

Working through the 2 molecules below one at a time, give inhibition at 0.1 µM for each.
1. CCc1c(F)ccc2cc(O)cc(-c3c(O)cc4c(N(C)C)nc(OC[C@@]56CCCN5C[C@H](F)C6)nc4c3F)c12
2. CCc1c(F)ccc2cc(O)cc(-c3c(F)cc4c(N5CCCn6nncc6C5)nc(OC[C@@]56CCCN5C[C@H](F)C6)nc4c3F)c12

Result ::
1. 9%
2. 9%

# batch size: 2; output inhibition at 0.1 µM per entry
1. CCc1c(F)ccc2cc(O)cc(-c3ccc4c(N5CCCn6nc(C(=O)N(C)C)c(C)c6C5)nc(OC[C@@]56CCCN5C[C@H](F)C6)nc4c3F)c12
2. CCc1c(F)ccc2cc(O)cc(-c3c(F)cc4c(N5CCCn6nc(C(=O)N7CCN(C)CC7)cc6C5)nc(OC[C@@]56CCCN5C[C@H](F)C6)nc4c3F)c12

Result ::
1: 29%; 2: 16%

Please supply inhibition at 0.1 µM for each of the following items, keeping them in order.
1. CCc1c(F)ccc2cc(O)cc(-c3c(F)cc4c(N5CCCC6(CCO6)C5)nc(OCC5(CN(C)C)CC5)nc4c3F)c12 (stereo not drawn)
2. CCc1c(F)ccc2cc(O)cc(-c3c(F)cc4c(N5CCCC6(CC(=O)NC6=O)C5)nc(OC[C@@]56CCCN5C[C@H](F)C6)nc4c3F)c12 (stereo partly drawn)
3. CCc1c(F)ccc2cc(O)cc(-c3ccc4c(N5CCCn6nc(C(=O)N(C)C)c(Cl)c6C5)nc(OC[C@@]56CCCN5C[C@H](F)C6)nc4c3F)c12
4. O=S1(=O)NCC2(CCCN(c3nc(OC[C@@]45CCCN4C[C@H](F)C5)nc4c(F)c(-c5cc(O)cc6ccc(F)c(Cl)c56)ccc34)C2)N1 (stereo partly drawn)
5. CCc1c(F)ccc2cc(O)cc(-c3c(F)cc4c(N5CCCn6nc(C(=O)N(C)C)c(C)c6C5)nc(OC[C@@]56CCCN5C[C@H](F)C6)nc4c3F)c12

Result ::
["24%", "92%", "38%", "69%", "71%"]

Query :: Notebook: pull reported inhibition at 0.1 µM for KRas-mediated Phosphorylation of ERK in HCT116 cells, entry `CCc1c(F)ccc2cc(O)cc(-c3c(F)cc4c(N5CCCn6nc(C(=O)N7CCOCC7)c(Cl)c6C5)nc(OC[C@@]56CCCN5C[C@H](F)C6)nc4c3F)c12`
Result :: 64%
